Origin of the recorded values: PubChem BioAssay AID330

Test system: P388 leukemia ip, CD2F1 mice, survival T/C
test summary: NCI In Vivo Anticancer Drug Screen. Data for tumor model P388 Leukemia (intraperitoneal) in CD2F1 (CDF1) mice
condition notes: endpoint: median survival time; dose: 400.0 mg/kg/injection; schedule: Q04DX003 (ip); vehicle: saline; higher = longer survival
Toxic doses and inconclusive results are not listed.
Reported T/C values for the following compounds.

compound: OCC(O)COCCCCCCCCCCCC1C=CCC1 (configuration not stated)
test system: P388 leukemia ip, CD2F1 mice, survival T/C
reported measurement: 99 % of control
--
compound: Cn1c(=O)c2[nH]c([N+](=O)[O-])nc2n(C)c1=O
test system: P388 leukemia ip, CD2F1 mice, survival T/C
reported measurement: 100 % of control
--
compound: C[n+]1ccc(C(=O)O)cc1 (tested in a mixture with another compound)
test system: P388 leukemia ip, CD2F1 mice, survival T/C
reported measurement: 98 % of control
--
compound: OCC(COCCCCCCCCCCCC1C=CCC1)OCCCCCCCCCCCC1C=CCC1 (configuration not stated)
test system: P388 leukemia ip, CD2F1 mice, survival T/C
reported measurement: 104 % of control
--
compound: COc1cc2c(cc1OC)C(=O)C(=C1C=CN(C)C=C1)N=C2
test system: P388 leukemia ip, CD2F1 mice, survival T/C
reported measurement: 100 % of control
--
compound: C1CCCC2(CC1)OCCO2
test system: P388 leukemia ip, CD2F1 mice, survival T/C
reported measurement: 98 % of control

Turning now to a further compound:
Query: Quick one: T/C for `CC(C)(O)Cn1ccccc1=O` ?
Reply: 104 % of control

###

Test system: P388 leukemia ip, CD2F1 mice, survival T/C
test summary: NCI In Vivo Anticancer Drug Screen. Data for tumor model P388 Leukemia (intraperitoneal) in CD2F1 (CDF1) mice
condition notes: endpoint: median survival time; dose: 200.0 mg/kg/injection; schedule: Q01DX009 (ip); vehicle: saline; higher = longer survival
Experimental: The antitumor activity of compounds was measured in mice bearing transplantable tumors. Survival or tumor size were measured and the results are expressed as the measurement made in the treated group (T) divided by the measurement made in the vehicle treated control group (C). The tumor model used in this assay is P388 Leukemia (intraperitoneal) in CD2F1 (CDF1) mice
Toxic doses and inconclusive results are not listed.
property label: T/C

Please review the following examples before continuing.
compound: CC(C)OP(=S)(OC(C)C)SC(C)C
test system: P388 leukemia ip, CD2F1 mice, survival T/C
T/C: 116 % of control
//
compound: C=CC(=O)NCC(=O)O
test system: P388 leukemia ip, CD2F1 mice, survival T/C
T/C: 109 % of control
//
compound: Cc1cccc(CCl)n1
test system: P388 leukemia ip, CD2F1 mice, survival T/C
T/C: 105 % of control

Query: Which measured T/C value corresponds to `Cc1noc(N(C)C)c1C` ?
Reply: 108 % of control

Query: Subsequent entry: `COc1cc2c(NCCCCCO)ncnc2c(OC)c1OC`
Reply: 102 % of control

Query: What about O=C1C(c2ccccc2)SC(=S)N1c1ccccc1 (stereo not drawn) ?
Reply: 89 % of control

Query: Also need C1CC2OCC1O2 (stereo not drawn) , thanks.
Reply: 100 % of control

Query: What would you report for `CCOP(=O)(CC(=O)c1cc2ccccc2[nH]1)OCC` ?
Reply: 97 % of control
